- tested.on: KRAS G12C and cRAF (Ras-binding domain) interaction (Homo sapiens (Human), UniProt P01116, C118S/C51S/C80L/G12C)
- Sequence (P01116 other isoform, or with tags, fused parts or gaps G12C/C51S/C80L/C118S): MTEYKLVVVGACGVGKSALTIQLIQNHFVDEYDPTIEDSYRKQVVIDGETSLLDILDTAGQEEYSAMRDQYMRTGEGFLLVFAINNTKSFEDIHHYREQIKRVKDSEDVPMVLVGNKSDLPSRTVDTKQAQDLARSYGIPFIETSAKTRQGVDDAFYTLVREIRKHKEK
- assay.overview: Inhibition of KRAS G12C and cRAF binding (AlphaScreen)
- test.context: GMPPNP-loaded KRAS G12C, 19-20 hours incubation with compound; read-out: IC50 (Inhibition of KRAS G12C and cRAF Binding)
pIC50: −log10 of the molar value.
Readings of pIC50 for the listed molecules

// known answers, use as guide
Value of measured pIC50 for the entry C=CC(=O)N1CC[C@@H](N(CCC#N)c2nc(OC[C@@]34CCCN3C[C@H](F)C4)nc3c(F)c(-c4cccc5cccc(Cl)c45)ncc23)C1 [Example 264] : 6.30 to 7.00

Value of measured pIC50 for the entry CN(c1nc(OCC23CCCN2CCC3)nc2c1CCN(c1cccc3cccc(Cl)c13)C2)[C@@H]1CCN(C(=O)/C=C/c2nc(C3(C)CC3)no2)C1 [Example 128] : 6.30 to 7.00

Value of measured pIC50 for the entry C=CC(=O)N1CC[C@@H](N(C)c2nc(OC[C@@]34CCCN3C[C@H](F)C4)nc3c(F)c(-c4cc(OC(F)F)cc5cccc(Cl)c45)ncc23)C1 [Example 82] : < 6.30

Value of measured pIC50 for the entry CN(CC1CN(C(=O)C#CCN2CCOCC2)C1)c1nc(OC[C@@]23CCCN2C[C@H](F)C3)nc2c(F)c(-c3cccc4cccc(Cl)c34)ncc12 [Example 91] : 6.30 to 7.00

Value of measured pIC50 for the entry Cc1nccc(/C=C/C(=O)N2CC[C@@H](N(C)c3nc(OC[C@@]45CCCN4C[C@H](F)C5)nc4c3CCN(c3cccc5cccc(Cl)c35)C4)C2)n1 [Example 71] : < 6.30

// moving on: another record for pIC50
Value of measured pIC50 for the entry Cc1cc(/C=C/C(=O)N2CC(CN(C)c3nc(OC[C@@]45CCCN4C[C@H](F)C5)nc4c(F)c(-c5cccc6ccc(F)c(F)c56)ncc34)C2)nc(C)n1 [Example 274] : 7.00 to 8.00

----------
Readings of IC50 for the listed molecules
- tested.on: KRAS G12C and cRAF (Ras-binding domain) interaction (Homo sapiens (Human), UniProt P01116, C118S/C51S/C80L/G12C)
- assay.overview: Inhibition of KRAS G12C and cRAF binding (AlphaScreen)
- test.context: additional exemplary compounds; KRAS G12C and cRAF binding; read-out: RAF1 RBD IC50

// known answers, use as guide
Value of measured IC50 for the entry `C=CC(=O)N1C[C@H]2C[C@@H]1CN2c1nc(OCC23CCCN2CCC3)nc2c1CCN(c1cccc3cccc(Cl)c13)C2` : > 500 nM

Value of measured IC50 for the entry `C=CC(=O)N1CC(CN(C)c2nc(OCC34CCCN3CCC4)nc3c(F)c(-c4cccc5cccc(Cl)c45)ncc23)C1` : 10 to 100 nM

Value of measured IC50 for the entry `CCN(CC)C/C=C/S(=O)(=O)CCN(C)c1nc(OC[C@@H]2CCCN2C)nc2c(F)c(-c3cccc4cccc(Cl)c34)ncc12` : 10 to 100 nM

Value of measured IC50 for the entry `C=CC(=O)N1CC[C@H]2[C@H]1CCN2c1nc(OCC23CCCN2CCC3)nc2c1CCN(c1cccc3cccc(Cl)c13)C2` : > 500 nM

Value of measured IC50 for the entry `C=CS(=O)(=O)[C@@H]1CC[C@H](N(C)c2nc(OCC34CCCN3CCC4)nc3c2CCN(c2cccc4cccc(Cl)c24)C3)C1` : > 500 nM

Others:
Value of measured IC50 for the entry C=CC(=O)N1CCC(N(C)c2nc(OCC34CCCN3CCC4)nc3c2CCN(c2cccc4cccc(Cl)c24)C3)C1CC#N (stereo not shown) : > 500 nM

Value of measured IC50 for the entry `COCCN(C)C/C=C/S(=O)(=O)CCN(C)c1nc(OCC23CCCN2CCC3)nc2c(F)c(-c3cccc4cccc(Cl)c34)ncc12` : 10 to 100 nM

----------
Readings of pIC50 for the listed compounds
- tested.on: KRAS G12C and cRAF (Ras-binding domain) interaction (Homo sapiens (Human), UniProt P01116, C118S/C51S/C80L/G12C)
- assay.overview: Inhibition of KRAS G12C and cRAF binding (AlphaScreen)
- test.context: additional exemplary compounds; KRAS G12C and cRAF binding; read-out: RAF1 RBD IC50
pIC50: −log10 of the molar value.

// known answers, use as guide
Value of measured pIC50 for the entry `CN(c1nc(OCC23CCCN2CCC3)nc2c(F)c(-c3cccc4cccc(Cl)c34)ncc12)[C@@H]1CCN(C(=O)/C=C/c2ncn(C)n2)C1` : < 6.30

Value of measured pIC50 for the entry `CN(c1nc(OCC23CCCN2CCC3)nc2c(F)c(-c3cccc4cccc(Cl)c34)ncc12)[C@@H]1CCN(C(=O)/C=C/c2ccncn2)C1` : < 6.30

Value of measured pIC50 for the entry `CN(c1nc(OC[C@@]23CCCN2C[C@H](F)C3)nc2c(F)c(-c3cccc4cccc(Cl)c34)ncc12)[C@@H]1CCN(C#N)C1` : 7.00 to 8.00

Value of measured pIC50 for the entry `C=CC(=O)N1CC(CN(C)c2nc(OC[C@]34CCCN3C[C@H](F)C4)nc3c(F)c(-c4cccc5cccc(Cl)c45)ncc23)C1` : < 6.30

// moving on: another record for pIC50
Value of measured pIC50 for the entry `C=CC(=O)N1CC[C@H]1CN(C)c1nc(OC[C@@]23CCCN2C[C@H](F)C3)nc2c(F)c(-c3cccc4cccc(Cl)c34)ncc12` : < 6.30

----------
- tested.on: KRAS G12C and cRAF (Ras-binding domain) interaction (Homo sapiens (Human), UniProt P01116, C118S/C51S/C80L/G12C)
- assay.overview: Inhibition of KRAS G12C and cRAF binding (AlphaScreen)
- test.context: additional exemplary compounds; KRAS G12C and cRAF binding; read-out: RAF1 RBD IC50
pIC50: −log10 of the molar value.
measured.parameter: pIC50

Value of measured pIC50 for the entry `C=CC(=O)C[C@H](C)N(C)c1nc(OC[C@@H]2CCCN2C)nc2c1CCN(c1cccc3ccccc13)C2` : < 6.30

Value of measured pIC50 for the entry `C=CC(=O)N1CCC[C@@H](N(C)c2nc(OC[C@@]34CCCN3C[C@H](F)C4)nc3c(F)c(-c4cccc5cccc(Cl)c45)ncc23)C1` : < 6.30

Value of measured pIC50 for the entry CN(C)C/C=C/S(=O)(=O)C1CCCN(c2nc(OCC34CCCN3CCC4)nc3c(F)c(-c4cccc5cccc(Cl)c45)ncc23)C1 (stereo not shown) : 7.00 to 8.00

// moving on: another record for pIC50
Value of measured pIC50 for the entry `C=CC(=O)N1CC[C@@H](N(C)c2nc(OC[C@@]34CCCN3C[C@@H](F)C4)nc3c2CCN(c2cccc4cccc(Cl)c24)C3)C1` : < 6.30

----------
Readings of pIC50 for the listed compounds
- tested.on: KRAS G12C and cRAF (Ras-binding domain) interaction (Homo sapiens (Human), UniProt P01116, C118S/C51S/C80L/G12C)
- assay.overview: Inhibition of KRAS G12C and cRAF binding (AlphaScreen)
- test.context: GMPPNP-loaded KRAS G12C, 19-20 hours incubation with compound; read-out: IC50 (Inhibition of KRAS G12C and cRAF Binding)
pIC50: −log10 of the molar value.

Value of measured pIC50 for the entry CN(c1nc(OC[C@@]23CCCN2C[C@H](F)C3)nc2c(F)c(-c3cccc4ccc(F)c(Cl)c34)ncc12)[C@@H]1CCN(C(=O)/C=C/C2COCCN2)C1 (some centres unmarked) [Example 123] : 6.30 to 7.00

----------
- tested.on: KRAS G12C and cRAF (Ras-binding domain) interaction (Homo sapiens (Human), UniProt P01116, C118S/C51S/C80L/G12C)
- assay.overview: Inhibition of KRAS G12C and cRAF binding (AlphaScreen)
- test.context: additional exemplary compounds; KRAS G12C and cRAF binding; read-out: RAF1 RBD IC50
pIC50: −log10 of the molar value.
Readings of pIC50 for the listed compounds

// known answers, use as guide
Value of measured pIC50 for the entry `O=C(/C=C/CN1CCOCC1)N1C[C@H]2CC[C@@H](C1)N2c1nc(OC[C@@]23CCCN2C[C@H](F)C3)nc2c(F)c(-c3cccc4cccc(Cl)c34)ncc12` : < 6.30

Value of measured pIC50 for the entry `C=CC(=O)[C@H](C)CN(C)c1nc(OC[C@@H]2CCCN2C)nc2c1CCN(c1cccc3ccccc13)C2` : < 6.30

Value of measured pIC50 for the entry `C=CC(=O)N1CC[C@@H](N(C)c2nc(OC[C@@]34CCCN3C[C@H](F)C4)nc3c(F)c(-c4cccc5cccc(Cl)c45)ncc23)C1` : 7.00 to 8.00

Value of measured pIC50 for the entry `C=CC(=O)N1CC(N(C)c2nc(OC[C@@]34CCCN3C[C@H](F)C4)nc3c2CCN(c2cccc4cccc(Cl)c24)C3)C1` : < 6.30

Value of measured pIC50 for the entry `C=CC(=O)N1C[C@H](N(C)c2nc(OCC34CCCN3CCC4)nc3c2CCN(c2cccc4cccc(Cl)c24)C3)C[C@H]1C` : < 6.30

Value of measured pIC50 for the entry `C=CC(=O)N1CC[C@@H](Nc2nc(OC[C@@]34CCCN3C[C@H](F)C4)nc3c2CCN(c2cccc4cccc(Cl)c24)C3)C1` : < 6.30

Others:
Value of measured pIC50 for the entry `C=CS(=O)(=O)[C@H]1CC[C@@H](N(C)c2nc(OCC34CCCN3CCC4)nc3c2CCN(c2cccc4cccc(Cl)c24)C3)C1` : 7.00 to 8.00

Value of measured pIC50 for the entry `C=CC(=O)N1C[C@H](N(C)c2nc(OC[C@@]34CCCN3C[C@H](F)C4)nc3c2CCN(c2cccc4cccc(Cl)c24)C3)C[C@H]1CC#N` : 6.30 to 7.00

Value of measured pIC50 for the entry `C=CC(=O)N1C[C@H](C)C[C@H](Nc2nc(OC[C@@]34CCCN3C[C@H](F)C4)nc3c(F)c(-c4cccc5cccc(Cl)c45)ncc23)C1` : < 6.30

Value of measured pIC50 for the entry `CN(C)C/C=C/S(=O)(=O)CCN(C)c1nc(OC[C@@H]2CCCN2C)nc2c(F)c(-c3cccc4ccc(F)c(Cl)c34)ncc12` : 7.00 to 8.00

Value of measured pIC50 for the entry `C=CC(=O)N1C[C@@H]2C[C@H]1CN2c1nc(OCC23CCCN2CCC3)nc2c1CCN(c1cccc3cccc(Cl)c13)C2` : < 6.30

Value of measured pIC50 for the entry `C/C=C/C(=O)CN(C)c1nc(OC[C@@H]2CCCN2C)nc2c1CCN(c1cccc3ccccc13)C2` : < 6.30

Value of measured pIC50 for the entry `CN(CC1CN(C#N)C1)c1nc(OC[C@@H]2CCCN2C)nc2c(F)c(-c3cccc4cccc(Cl)c34)ncc12` : < 6.30

Value of measured pIC50 for the entry `CN(c1nc(OC[C@@]23CCCN2C[C@H](F)C3)nc2c(F)c(-c3cccc4cccc(Cl)c34)ncc12)[C@@H]1CCN(C(=O)/C=C/CN2CCCS2(=O)=O)C1` : 6.30 to 7.00

Value of measured pIC50 for the entry `C=CC(=O)N1CC[C@@H](N(C)c2nc(OC[C@@]34CCCN3C[C@H](F)C4)nc3c2CCN(c2cccc4cccc(Cl)c24)C3)C1` : 6.30 to 7.00
